Measured values drawn from paper PMC5540273 for this set.

- System: YES
- Construct: gene YES1
- condition details: concentration: 1 μM,replicates: in singlicate; n = 1;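 further: KINOMEscan kinase panel screen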
Quick list: %Inh per entry.
Report the figure in % without appending any unit label.

OCCn1cc(-c2cnc3nnn(Cc4ccc5ncccc5c4)c3n2)cn1
0

Under YES: %Inh value of CS(=O)(=O)Nc1ccc(-c2ccnc3[nH]ccc23)cc1 ?
8

What do you get for CCCC(=O)Nc1n[nH]c2ncccc12 ?
0

# repeat for Cl.Cl.NC[C@H](CC1CCCCC1)NC(=O)c1ccc(-c2ccnc3[nH]ccc23)s1
5

Next: Cc1cccc(-c2nc(Nc3ccncc3)c3sccc3n2)n1
0

And for COc1cc2c(Nc3ccc(NC(=O)c4ccccc4)cc3)ncnc2cc1OCCCN1CCOCC1 ?
46

Same question, CC(C(=O)NC1CCN(c2ccnc(Nc3ccc(F)cc3)n2)C1)c1ccc(Cl)cc1 (stereo not drawn) this time
0

Proceed to Cc1ccn2nc(-c3ccc(F)cc3)c(-c3ccncc3)c2c1.Cl
5

Now the compound Cn1ccc2ncnc(Oc3ccc(NC(=O)Nc4cnn(C(C)(C)C)c4)c(Cl)c3)c21
0

Here is the next compound: Cc1ccc2c(-c3ccnc(Nc4ccc(C(F)(F)F)cc4)n3)cnn2n1
0

// repeat for CC(=O)Nc1nc2cnc(Nc3cc(NC(=O)c4cccc(CC(C)(C)C#N)c4)ccc3C)nc2s1 and report
17

Now the compound CN1CCN(CCCNc2nccc(-c3c(-c4ccc(F)cc4)nn4cc(C(N)=O)ccc34)n2)CC1
24

Do the same for Cn1ccc2ncnc(Oc3ccc(NC(=O)Nc4cccc(C(F)(F)F)c4)c(F)c3)c21 please
0

Moving on to the next compound: CN(c1cccc(CNc2nc(Nc3ccc4c(c3)CC(=O)N4)ncc2C(F)(F)F)c1)S(C)(=O)=O
3

Then Cn1ccc2ncnc(Oc3ccc(NC(=O)Nc4cccc(C(F)(F)F)c4)c(Cl)c3)c21 ?
0

Now this one: Cn1cc(-c2cccc3c(N)c(C(N)=O)nnc23)cn1
0

Request: C[C@@H]1CNc2c(sc3ccc4nc(-c5ccc(O)cc5)ccc4c23)C(=O)N1
0

And C[C@@H]1CNc2c(sc3ccc4nc(-c5ccncc5)ccc4c23)C(=O)N1 ?
0

----------
- System: PRKCI
- condition details: concentration: 1 μM,replicates: in singlicate; n = 1
Binary call on %Inh with cut-off 30%: strictly below means Satisfied, and equality or higher means Not satisfied.

Observe how each entry below is paired with its result.
CC(C)c1nc(-c2cccc(NS(=O)(=O)c3ccccc3)c2)c(-c2ccnc(Nc3ccc4c(c3)CN(C)CC4)n2)s1
Not satisfied
OCCn1cc(-c2cnc3nnn(Cc4ccc5ncccc5c4)c3n2)cn1
Satisfied
O=C(Nc1ccc(Oc2ccc3nc(NC(=O)C4CC4)cn3n2)c(F)c1)c1cccn(-c2ccccc2)c1=O
Satisfied
O=C(Nc1n[nH]c2cc(-c3ccco3)ccc12)C1CC1
Satisfied
COc1cccc(C2=C(Nc3cccc(Cl)c3)C(=O)NC2=O)c1
Satisfied

For Cc1cccc2c(-c3ccncc3)c(-c3ccc(F)cc3)nn12.Cl , is the recorded %Inh below the cut-off of 30%?
Satisfied

For O=C(Nc1cccc(Oc2ccc3nccn3n2)c1)Nc1cccc(C(F)(F)F)c1 then?
Satisfied

And then O=c1[nH]cc(-c2ccc(O)cc2)c2sc(-c3ccncc3)cc12 , what is it?
Not satisfied

Field entry: COc1cc(Nc2nccc(N3CCC(NC(=O)c4cccc(C#N)c4)C3)n2)cc(OC)c1OC (stereo not drawn)
Satisfied
